Examples of binders with documented Kd follow.
EXPERIMENTAL TARGET: T1, fHbp m001929 (Neisseria meningitidis; fHbp …, chimera)
T1 chain: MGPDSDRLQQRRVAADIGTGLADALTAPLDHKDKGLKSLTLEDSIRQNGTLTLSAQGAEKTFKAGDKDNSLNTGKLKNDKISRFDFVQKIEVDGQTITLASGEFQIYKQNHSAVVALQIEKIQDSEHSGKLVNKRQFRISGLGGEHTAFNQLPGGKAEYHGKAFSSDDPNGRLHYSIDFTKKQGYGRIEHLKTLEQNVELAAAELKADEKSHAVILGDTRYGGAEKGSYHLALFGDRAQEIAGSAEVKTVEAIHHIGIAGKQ
TEST PROTOCOL: BLI
TEST SETTINGS: both partners purified
API: value field is a number in nM; no unit string.

Illustrative cases are given below, each with its answer.
Briefly, Kd measured for mAb 4B3 (human) (antibody, V domains shown, also called 4B3-2; source: Expi293, purified (MabSelect SuRe, SEC); copies: 2 + 2) VH: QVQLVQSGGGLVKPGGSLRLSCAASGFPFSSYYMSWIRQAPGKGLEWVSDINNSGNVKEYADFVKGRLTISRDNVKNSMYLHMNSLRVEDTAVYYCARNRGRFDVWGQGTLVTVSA VL: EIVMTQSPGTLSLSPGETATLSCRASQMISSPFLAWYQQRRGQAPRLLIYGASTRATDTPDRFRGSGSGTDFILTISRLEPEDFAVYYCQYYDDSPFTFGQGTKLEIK : 2.63

Measured Kd, chimeric antibody h12C1 (antibody, V domains shown, also called humanized 12C1; source: Expi293, purified (MabSelect SuRe, SEC); copies: 2 + 2) VH: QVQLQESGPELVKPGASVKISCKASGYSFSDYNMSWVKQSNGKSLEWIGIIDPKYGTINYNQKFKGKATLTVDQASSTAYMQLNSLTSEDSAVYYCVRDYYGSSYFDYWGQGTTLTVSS VL: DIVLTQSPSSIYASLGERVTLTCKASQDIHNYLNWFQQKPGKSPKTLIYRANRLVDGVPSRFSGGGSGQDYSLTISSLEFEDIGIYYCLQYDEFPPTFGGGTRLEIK : 45.9

New cases:
Lab book: Kd of mAb 1E6 (human) (antibody, V domains shown, source: Expi293, purified (MabSelect SuRe, SEC); copies: 2 + 2) VH: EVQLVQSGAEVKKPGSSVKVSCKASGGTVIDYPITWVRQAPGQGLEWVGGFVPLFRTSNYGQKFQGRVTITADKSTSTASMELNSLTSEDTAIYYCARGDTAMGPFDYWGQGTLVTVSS VL: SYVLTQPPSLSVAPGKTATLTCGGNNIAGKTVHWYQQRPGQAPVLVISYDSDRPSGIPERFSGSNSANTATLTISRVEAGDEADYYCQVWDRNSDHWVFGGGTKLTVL noted as 0.235
